We begin with a simple list: items and their reported PLATELET COUNT.
organism: Rattus norvegicus; test: DrugMatrix - Regimen: Daily Repeat; assay type: toxicity, organism-based, Sprague-Dawley; parameters: regimen Daily Repeat, gender Male, age 6-8 weeks; conditions: in vivo, po, 0 mg/kg, 120 h, tissue Blood, route oral GAVAGE, dose level Control, time 5 day, vehicle .5 % CMC
Number only, in x10E3/uL; omit the unit.

// solved cases for PLATELET COUNT follow
[
  {
    "molecule": "NC(=O)NC(=O)Cc1ccccc1 [PHENACEMIDE]",
    "recorded.metric": "PLATELET COUNT",
    "experimental.result": 1078
  },
  {
    "molecule": "Cl.NC[C@H]1CC[C@H](C(=O)Oc2ccc(CCC(=O)O)cc2)CC1 [CETRAXATE HYDROCHLORIDE]",
    "recorded.metric": "PLATELET COUNT",
    "experimental.result": 1251.67
  },
  {
    "molecule": "CC(C)NCC(O)COc1ccc(CC(N)=O)cc1 (configuration not stated)",
    "recorded.metric": "PLATELET COUNT",
    "experimental.result": 1177
  },
  {
    "molecule": "CCOc1cc(N)c(Cl)cc1C(=O)NCC1CN(Cc2ccc(F)cc2)CCO1 (configuration not stated) [MOSAPRIDE]",
    "recorded.metric": "PLATELET COUNT",
    "experimental.result": 1196
  }
]

# input Can you share its PLATELET COUNT? I mean this molecule: "CCN1C[C@]2(COC)[C@H](O)C[C@H](OC)[C@@]34[C@@H]5C[C@@]6(O)[C@H](OC(=O)c7ccccc7)[C@@H]5[C@@](OC(C)=O)([C@@H]([C@H](OC)[C@H]23)[C@@H]14)[C@@H](O)[C@@H]6OC"
# output 1267

# input Please give the result for NCC(CC(=O)O)c1ccc(Cl)cc1 (configuration not stated) too.
# output 1196

###

organism: Rattus norvegicus; experiment: DrugMatrix - Regimen: Daily Repeat; format: toxicity, organism-based, Sprague-Dawley; set-up: regimen Daily Repeat, gender Male, age 6-8 weeks; conditions: in vivo, po, 0 mg/kg, 120 h, tissue Blood, route oral GAVAGE, dose level Control, time 5 day, […]
recorded.metric: NEUTROPHIL

[
  {
    "compound": "CCOC(=O)C1=C(C)NC(C)=C(C(=O)OCC)C1c1ccccc1/C=C/C(=O)OC(C)(C)C",
    "experimental.result": "5.17%"
  },
  {
    "compound": "CO[C@H]1O[C@@H]2O[C@@]3(C)CC[C@H]4[C@H](C)CC[C@@H]([C@H]1C)[C@@]24OO3",
    "experimental.result": "10.33%"
  },
  {
    "compound": "CC(C)(c1ccc(O)cc1)c1ccc(O)cc1",
    "experimental.result": "9%"
  },
  {
    "compound": "COC(=O)Nc1nc2ccc(C(=O)c3ccccc3)cc2[nH]1",
    "experimental.result": "10.33%"
  },
  {
    "compound": "c1ccc2c(c1)Nc1ccccc1S2",
    "experimental.result": "9.67%"
  }
]

# input Can you share its NEUTROPHIL? I mean this compound: "CC#C[C@]1(O)CC[C@H]2[C@@H]3CCC4=CC(=O)CCC4=C3[C@@H](c3ccc(N(C)C)cc3)C[C@@]21C"
# output 8.17%

# input Please give the result for O=C(Nc1ccc(Cl)c(Cl)c1)c1cc(Cl)cc(Cl)c1O [3,3',4',5-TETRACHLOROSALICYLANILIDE] too.
# output 9.83%

# input Please give the result for "CS(=O)(=O)c1ccc(C2=C(c3ccccc3)C(=O)OC2)cc1" too.
# output 9.67%

# input Please give the result for "Oc1ncnc2[nH]ncc12" too.
# output 14.17%
